- protocol_details: melting temperature; fluorescence melt of hairpins on a sequencing array, two-state fit, raised by 9.35 °C to match UV melts
- condition_parameters: sodium 0.088 M
parameter: Tm (°C)
Lab book: enter the figure in °C, no units written.

Data request, read-out Tm, for GTCTGCGAAAGCATGAC ((((((....))).)))
52.7

Data request, read-out Tm, for GTCCTGGCGAAAGCCGAC (((..(((....))))))
32.9

Data request, read-out Tm, for GCGGAACACCGC ((((....))))
54.6

Data request, read-out Tm, for GATCCGTGAGCGGATC ((((((....))))))
65.9

Data request, read-out Tm, for GCTATCGCGAAAGCGAGC (((..(((....))))))
39.2

Data request, read-out Tm, for GGGTTCACGAAAGTGCCC (((..(((....))))))
41.2

Data request, read-out Tm, for GACGCAGGAAACCGCATC ((.((.(....).)).))
28.5

Data request, read-out Tm, for GGACACGGAAACGCGTCC ((((.((....)).))))
54.6

Data request, read-out Tm, for GTGTTGGGAAACTAGCAC (((.(.(....).).)))
31.8

Data request, read-out Tm, for GGTACCCCGAAAGGGACC (((..(((....))))))
46.7

Data request, read-out Tm, for GTACTACGAAAGTAATAC (((.(((....))).)))
29.8

Data request, read-out Tm, for GTACTCGCGAAAGCGTAC (((..(((....))))))
30.4

Data request, read-out Tm, for GCAGCCGAAAGGCCTTGC ((((((....)))..)))
35.7

Data request, read-out Tm, for GTTAAGGGAAACCCTAAC ((((.((....)).))))
30.3

Data request, read-out Tm, for GGTTCTGGAAACGGAACC (((((.(....).)))))
52.3

Data request, read-out Tm, for TGGGAGAAATCCCA (((((....)))))
40.7

Data request, read-out Tm, for GGGGACGAAAGTCCACCC ((((((....)))..)))
55.2

Data request, read-out Tm, for GGGCTAGGAAACTGGCTC (.((.((....)).)).)
40.9

Data request, read-out Tm, for GATCACCCGCGTGATC ((((((....))))))
54.5

Data request, read-out Tm, for GATCATTCGGATGATC ((((((....))))))
48.1

Data request, read-out Tm, for GCTGCTGGAAACAGCAAC (.(((((....))))).)
44.3

Data request, read-out Tm, for GTACGCGAAAGCGTCTAC ((((((....)))..)))
39.9

Data request, read-out Tm, for GTACCCGAAAGGGTTAC ((((((....))).)))
46.4

Data request, read-out Tm, for GACCTCGGAAACGAGACC (..((((....))))..)
26.1

Data request, read-out Tm, for GATCCTCAGAAGGATC ((((((....))))))
51

---

Provide the reported Tm of each item.
- protocol_details: melting temperature; fluorescence melt of hairpins on a sequencing array, two-state fit, raised by 9.35 °C to match UV melts
- condition_parameters: sodium 0.088 M
Lab book: enter the figure in °C, no units written.

Data request, read-out Tm, for GACCACCGAAAGGTAGTC (((.(((....))).)))
47

Data request, read-out Tm, for GACTCCGAAAGGATCGTC ((((((....)))..)))
42.1

Data request, read-out Tm, for GACGTAGGAAACTGTGTC (((..((....))..)))
25.7

Data request, read-out Tm, for GAATCCGAAAGGAGTTC ((((((....))).)))
35.3

Data request, read-out Tm, for GGGAGTGGAAACGCTCCC (((((.(....).)))))
58

Data request, read-out Tm, for GTGGTAGAAATACCAC ((((((....))))))
53.6

Data request, read-out Tm, for GATCCGTGTTCGGATC ((((((....))))))
61.4

Data request, read-out Tm, for GGCTTCGGAAACAAAGCC (((((.(....).)))))
44.2

Data request, read-out Tm, for GCTACGCGAAAGCCTCGC ((.(.((....)).).))
18.1

Data request, read-out Tm, for GCTATGCGAAAGCGTAGC ((((.((....)).))))
65.7

Data request, read-out Tm, for GTCGGCGAAAGCCGTGAC ((((((....)))..)))
41.1

Data request, read-out Tm, for GTAAGCCGAAAGGCGTAC (((.(((....))).)))
54.4
